Origin of values: ChEMBL document CHEMBL1132843

- Assayed system: Sodium-dependent serotonin transporter (Rattus norvegicus, UniProt P31652)
- Sequence (P31652 whole entry): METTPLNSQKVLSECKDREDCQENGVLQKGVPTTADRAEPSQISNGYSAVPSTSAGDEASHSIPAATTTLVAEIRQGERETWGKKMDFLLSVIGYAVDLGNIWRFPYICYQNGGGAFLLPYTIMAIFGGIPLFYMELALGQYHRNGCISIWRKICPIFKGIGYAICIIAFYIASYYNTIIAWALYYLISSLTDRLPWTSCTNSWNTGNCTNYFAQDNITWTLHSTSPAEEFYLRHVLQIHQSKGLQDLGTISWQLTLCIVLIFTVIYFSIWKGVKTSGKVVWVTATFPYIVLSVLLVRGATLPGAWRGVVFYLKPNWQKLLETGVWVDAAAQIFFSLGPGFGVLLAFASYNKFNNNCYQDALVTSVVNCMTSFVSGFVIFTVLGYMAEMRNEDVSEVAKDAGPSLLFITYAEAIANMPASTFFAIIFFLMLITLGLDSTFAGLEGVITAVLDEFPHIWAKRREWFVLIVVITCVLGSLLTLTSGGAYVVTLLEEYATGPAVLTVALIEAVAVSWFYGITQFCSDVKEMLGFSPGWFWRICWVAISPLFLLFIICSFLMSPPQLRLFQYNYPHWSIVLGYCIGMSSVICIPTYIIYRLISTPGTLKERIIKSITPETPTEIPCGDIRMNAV
- Assay info: Inhibition of [3H]5-HT uptake into rat synaptosomes by Serotonin transporter
Catalogue of compounds with associated Ki
Give the quantity in nM, number only.

>  <Chemical smiles>
COc1ccc(C(=O)NCc2ccc(CNC(=O)[C@@H]3CN(C)CC[C@H]3c3ccc(Cl)cc3)cc2)cc1

>  <Assayed system>
Sodium-dependent serotonin transporter (Rattus norvegicus, UniProt P31652)

>  <Ki, nM>
92

$$$$
>  <Chemical smiles>
CN1CC[C@@H](c2ccc(Cl)cc2)[C@H](C(=O)NCc2ccc(CNC(=O)/C=C/c3ccc(Cl)cc3)cc2)C1

>  <Assayed system>
Sodium-dependent serotonin transporter (Rattus norvegicus, UniProt P31652)

>  <Ki, nM>
69

$$$$
>  <Chemical smiles>
CN1CC[C@@H](c2ccc(Cl)cc2)[C@H](C(=O)NCc2ccc(CNC(=O)c3cccc(C(F)(F)F)c3)cc2)C1

>  <Assayed system>
Sodium-dependent serotonin transporter (Rattus norvegicus, UniProt P31652)

>  <Ki, nM>
35

$$$$
>  <Chemical smiles>
CN1CC[C@@H](c2ccc(Cl)cc2)[C@H](C(=O)NCc2ccc(CNC(=O)c3ccccc3)cc2)C1

>  <Assayed system>
Sodium-dependent serotonin transporter (Rattus norvegicus, UniProt P31652)

>  <Ki, nM>
30

$$$$
>  <Chemical smiles>
CN1CC[C@@H](c2ccc(Cl)cc2)[C@H](C(=O)NCc2ccc(CNC(=O)c3ccc(Cl)cc3Cl)cc2)C1

>  <Assayed system>
Sodium-dependent serotonin transporter (Rattus norvegicus, UniProt P31652)

>  <Ki, nM>
139

$$$$

QUERY: Indicate its recorded Ki; the compound in question is `CN1CC[C@@H](c2ccc(Cl)cc2)[C@H](C(=O)NCc2ccc(CNC(=O)c3ccc(Cl)cc3)cc2)C1`
RESULT: 84

QUERY: Indicate its recorded Ki; the compound in question is `CN1CC[C@@H](c2ccc(Cl)cc2)[C@H](C(=O)NCCCCCNC(=O)[C@@H]2CN(C)CC[C@H]2c2ccc(Cl)cc2)C1`
RESULT: 1.2

QUERY: Indicate its recorded Ki; the compound in question is `CN1CC[C@@H](c2ccc(Cl)cc2)[C@H](C(=O)NCc2ccc(CNC(=O)c3cccc(Cl)c3)cc2)C1`
RESULT: 33

###

- Assayed system: Norepinephrine transporter (Rattus norvegicus, UniProt Q9WTR4)
- Sequence (Q9WTR4 whole entry): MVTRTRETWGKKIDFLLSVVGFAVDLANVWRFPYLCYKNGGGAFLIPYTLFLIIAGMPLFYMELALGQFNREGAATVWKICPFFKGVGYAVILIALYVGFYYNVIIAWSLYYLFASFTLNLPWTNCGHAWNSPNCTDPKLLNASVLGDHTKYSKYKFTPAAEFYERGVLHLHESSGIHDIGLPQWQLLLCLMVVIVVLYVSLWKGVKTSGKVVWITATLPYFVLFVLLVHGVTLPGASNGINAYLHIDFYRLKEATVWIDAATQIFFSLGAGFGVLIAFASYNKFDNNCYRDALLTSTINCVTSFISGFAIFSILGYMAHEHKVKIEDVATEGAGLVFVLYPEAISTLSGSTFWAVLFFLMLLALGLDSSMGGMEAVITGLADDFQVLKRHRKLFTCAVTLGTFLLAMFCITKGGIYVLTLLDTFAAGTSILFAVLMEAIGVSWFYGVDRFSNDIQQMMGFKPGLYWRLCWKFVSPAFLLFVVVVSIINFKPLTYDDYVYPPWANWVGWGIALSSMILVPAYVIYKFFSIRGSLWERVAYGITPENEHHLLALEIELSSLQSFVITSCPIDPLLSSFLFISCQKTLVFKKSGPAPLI
- Assay info: Inhibition of norepinephrine transporter by inhibition of [3H]NE uptake into rat nerve endings (synaptosomes)
Measured quantity: Ki (nM)
Give the quantity in nM, number only.

>  <Chemical smiles>
CN1CC[C@@H](c2ccc(Cl)cc2)[C@H](C(=O)NCCCCCNC(=O)[C@@H]2CN(C)CC[C@H]2c2ccc(Cl)cc2)C1

>  <Measured quantity>
Ki

>  <Observed value>
399

$$$$
>  <Chemical smiles>
CN1CC[C@@H](c2ccc(Cl)cc2)[C@H](C(=O)NCc2ccc(CNC(=O)c3ccc(Cl)cc3)cc2)C1

>  <Measured quantity>
Ki

>  <Observed value>
1540

$$$$
>  <Chemical smiles>
CN1CC[C@@H](c2ccc(Cl)cc2)[C@H](C(=O)NCc2ccc(CNC(=O)c3ccc(C(F)(F)F)cc3)cc2)C1

>  <Measured quantity>
Ki

>  <Observed value>
651

$$$$
>  <Chemical smiles>
CN1CC[C@@H](c2ccc(Cl)cc2)[C@H](C(=O)NCc2ccc(CNC(=O)c3cccc(C(F)(F)F)c3)cc2)C1

>  <Measured quantity>
Ki

>  <Observed value>
508

$$$$
>  <Chemical smiles>
CN1CC[C@@H](c2ccc(Cl)cc2)[C@H](C(=O)NCc2ccc(CNC(=O)c3cccc(Cl)c3)cc2)C1

>  <Measured quantity>
Ki

>  <Observed value>
1040

$$$$

Now, please, on to the next molecule.
QUERY: Indicate its recorded Ki; the molecule in question is `CN1CC[C@@H](c2ccc(Cl)cc2)[C@H](C(=O)NCc2ccc(CNC(=O)[C@@H]3CN(C)CC[C@H]3c3ccc(Cl)cc3)cc2)C1`
RESULT: 74

###

- Assayed system: Monoamine transporters; serotonin & dopamine (Rattus norvegicus) (UniProt P31652+P23977)
- Sequence (P23977 whole entry, looked up, one chain of several): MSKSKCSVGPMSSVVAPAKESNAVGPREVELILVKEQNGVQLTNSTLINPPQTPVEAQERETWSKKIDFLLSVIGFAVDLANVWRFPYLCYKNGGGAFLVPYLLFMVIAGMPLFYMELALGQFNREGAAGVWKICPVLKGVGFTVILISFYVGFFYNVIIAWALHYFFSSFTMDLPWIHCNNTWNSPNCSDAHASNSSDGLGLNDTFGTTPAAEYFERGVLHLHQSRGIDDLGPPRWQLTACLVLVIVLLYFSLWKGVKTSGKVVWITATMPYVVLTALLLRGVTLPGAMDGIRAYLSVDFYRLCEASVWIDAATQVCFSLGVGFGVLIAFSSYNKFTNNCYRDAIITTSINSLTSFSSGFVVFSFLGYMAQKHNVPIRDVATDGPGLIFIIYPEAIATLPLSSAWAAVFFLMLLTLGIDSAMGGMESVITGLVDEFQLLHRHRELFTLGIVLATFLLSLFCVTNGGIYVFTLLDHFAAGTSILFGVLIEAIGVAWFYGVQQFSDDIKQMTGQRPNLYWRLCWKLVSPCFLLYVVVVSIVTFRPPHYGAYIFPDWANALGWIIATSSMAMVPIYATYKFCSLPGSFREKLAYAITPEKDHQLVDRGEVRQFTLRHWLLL
- Assay info: Ratio of selective inhibition of dopamine(DA) to serotonin(5-HT) was evaluated
- Format: protein assay
Catalogue of compounds with associated Ratio

// solved cases for Ratio follow
>  <Chemical smiles>
CN1CC[C@@H](c2ccc(Cl)cc2)[C@H](C(=O)NCc2ccc(CNC(=O)c3ccc(C(F)(F)F)cc3)cc2)C1

>  <Ratio>
> 12

$$$$
>  <Chemical smiles>
Cc1ccc(C(=O)NCc2ccc(CNC(=O)[C@@H]3CN(C)CC[C@H]3c3ccc(Cl)cc3)cc2)cc1

>  <Ratio>
> 36

$$$$
>  <Chemical smiles>
CN1CC[C@@H](c2ccc(Cl)cc2)[C@H](C(=O)NCCCCCNC(=O)[C@@H]2CN(C)CC[C@H]2c2ccc(Cl)cc2)C1

>  <Ratio>
1630

$$$$
>  <Chemical smiles>
CN1CC[C@@H](c2ccc(Cl)cc2)[C@H](C(=O)NCc2ccc(CNC(=O)/C=C/c3ccc(Cl)cc3)cc2)C1

>  <Ratio>
> 29

$$$$

QUERY: Indicate its recorded Ratio; the compound in question is `CN1CC[C@@H](c2ccc(Cl)cc2)[C@H](C(=O)NCc2ccc(CNC(=O)c3cccc(C(F)(F)F)c3)cc2)C1`
RESULT: > 143

QUERY: Indicate its recorded Ratio; the compound in question is `CN1CC[C@@H](c2ccc(Cl)cc2)[C@H](C(=O)NCc2ccc(CNC(=O)c3ccc(Cl)cc3)cc2)C1`
RESULT: 44

QUERY: Indicate its recorded Ratio; the compound in question is `CN1CC[C@@H](c2ccc(Cl)cc2)[C@H](C(=O)NCc2ccc(CNC(=O)c3cccc(Cl)c3)cc2)C1`
RESULT: > 121

QUERY: Indicate its recorded Ratio; the compound in question is `CN1CC[C@@H](c2ccc(Cl)cc2)[C@H](C(=O)NCc2ccc(CNC(=O)CCc3ccccc3)cc2)C1`
RESULT: > 30

QUERY: Indicate its recorded Ratio; the compound in question is `CN1CC[C@@H](c2ccc(Cl)cc2)[C@H](C(=O)NCc2ccc(CNC(=O)[C@@H]3CN(C)CC[C@H]3c3ccc(Cl)cc3)cc2)C1`
RESULT: > 7000

###

Catalogue of molecules with associated Ki
- Assayed system: Norepinephrine transporter (Rattus norvegicus)
- Assay info: Inhibition of norepinephrine transporter by inhibition of [3H]NE uptake into rat nerve endings (synaptosomes)
- Type: subcellular, Brain

// solved cases for Ki follow
>  <Chemical smiles>
CN1CC[C@@H](c2ccc(Cl)cc2)[C@H](C(=O)NCc2ccc(CNC(=O)CCc3ccccc3)cc2)C1

>  <Ki>
> 1000 nM

$$$$
>  <Chemical smiles>
CN1CC[C@@H](c2ccc(Cl)cc2)[C@H](C(=O)NCc2ccc(CNC(=O)/C=C/c3ccc(Cl)cc3)cc2)C1

>  <Ki>
> 2000 nM

$$$$

QUERY: Indicate its recorded Ki; the molecule in question is `Cc1ccc(C(=O)NCc2ccc(CNC(=O)[C@@H]3CN(C)CC[C@H]3c3ccc(Cl)cc3)cc2)cc1`
RESULT: > 1000 nM
